# experiment_description: protein stability index of a GFP-peptide fusion (yeast GPS) (PSI 1-4); higher = more stable; sorted into four equal gates, so the index is relative within each strain
# condition_parameters: pdr5∆
# protein stability index per entry

HSLAYLLENFANFKTSK [RRP6]    2.05
STVSANHSNNDIPTIAD [BRN1]    3.03
SKQNGIEQSITKNIPIT [SSN8]    2.67
TNLYKLKEERAIEPETF [PUP3]    2.97
LNEKFQELRKKVNPNIM [SMC2]    2.61
FNTNSSFTPSTVPNINF [YOR098C/NUP1]    2.42
VKSLLSEEKIRDYSKEI [SIR4]    2.48
ASKTNLRLTDVTNSLSN [GAL11]    3.38
TNAGYTIELAGGGYFSA [FAS1]    2.28
DVSQLIAGINKKKGLDE [PRP28]    3.64

Entry LDKHERKWMEEKADYER [YIL149C/MLP2] : reported protein stability index = ?
3.35

Moving on to the next sequence: DPSGSYFPWKATAIGKG [PRE8]
2.68

Moving on to the next sequence: TPLKARQREMAEEQTKL [YLR018C/POM34]
3.36

Moving on to the next sequence: DVPSEDDPTQLVSRGGC [RPO21]
3.06

Moving on to the next sequence: EVLQGLLQGGAKVVVTT [FAS2]
2.91

Moving on to the next sequence: VTADTVILFDSDWNPQA [ISW2]
2.76

====

# experiment_description: protein stability index of a GFP-peptide fusion (yeast GPS) (PSI 1-4); higher = more stable; sorted into four equal gates, so the index is relative within each strain
# condition_parameters: pdr5∆
# protein stability index per entry
Write the value as a bare number.

Solved cases below.
ENVGTRLLPINVNKKAL [MED11]    2.65
GNIDTKNNILGSNVLKS [RRP43]    2.97
STEEIEYIELEYRDLYT [YMR129W/POM152]    3.04
SVLHSWVQLVQIIVTDG [YJL039C/NUP192]    1.98
KKAEKAARKAEKAKSAG [RPL24A]    3.32
IVGQKNLNRAFNGDQVI [DIS3]    2.83
DNVDDIGEFNVSMYQNS [YDL088C/ASM4]    3.05

Attention now shifts to the item below.
Entry SPAALKQLASLKKSEEI [YMR153W/NUP53] : reported protein stability index = ?
2.85

====

# experiment_description: protein stability index of a GFP-peptide fusion (yeast GPS) (PSI 1-4); higher = more stable; sorted into four equal gates, so the index is relative within each strain
# condition_parameters: doa10∆
outcome_measure: protein stability index

TISKESTPDQRKRVYNI [ESC2]    2.92

Entry NEAGRKLSDIFLSKPSK [SNF2] : reported protein stability index = ?
2.94

Moving on to the next sequence: LYFEIIHGVLKNVDREV [FAS2]
3.04

Moving on to the next sequence: IRAHQTELTHHLLPRNE [QCR7]
2.99

====

# protein stability index per entry
# experiment_description: protein stability index of a GFP-peptide fusion (yeast GPS) (PSI 1-4); higher = more stable; sorted into four equal gates, so the index is relative within each strain
# condition_parameters: san1∆
Write the value as a bare number.

VQDALLTNQLYKNHELL [SNF2]    3.08

Entry KTNIIEKAMDYAISIEN [RPN12] : reported protein stability index = ?
2.95

Moving on to the next sequence: GIIITDQSNVQYYLSVL [BRR2]
3.07

Moving on to the next sequence: GDLLNAEVQSLFQDGSA [RRP4]
2.94
